- Test system: BDF1 mice, P388 leukemia ip, median survival T/C
- experiment.notes: NCI In Vivo Anticancer Drug Screen. Data for tumor model P388 Leukemia (intraperitoneal) in B6D2F1 (BDF1) mice
- run.conditions: endpoint: median survival time; dose: 100.0 mg/kg/injection; schedule: Q04DX003 (ip); vehicle: Klucel (hydroxypropylcellulose) (HPC); higher = longer survival
Toxic doses and inconclusive results are not listed.
compounds and their reported T/C

Answered cases to consult:
CCOC(=O)C(C#N)(CC)C1=CCCCC1 (stereo unspecified): 109 % of control
c1ccc(C2SCCSCCS2)cc1: 90 % of control
O=C(OC1COC(n2c(=O)oc3ccc(F)cc32)C(OC(=O)c2ccccc2)C1OC(=O)c1ccccc1)c1ccccc1 (stereo unspecified): 113 % of control

**Query** # input compound: CC(=O)OCCCc1ccccc1 ; wanted: its T/C
**Result** 110 % of control

**Query** # input compound: Cc1ccccc1C1(c2ccccc2C)OC(=O)c2ccccc21 ; wanted: its T/C
**Result** 95 % of control

**Query** # input compound: CCCCCCC[CH2][Sn](=[O])[CH2]CCCCCCC ; wanted: its T/C
**Result** 90 % of control

----------
- System: BDF1 mice, P388 leukemia ip, median survival T/C
- experiment.notes: NCI In Vivo Anticancer Drug Screen. Data for tumor model P388 Leukemia (intraperitoneal) in B6D2F1 (BDF1) mice
- run.conditions: endpoint: median survival time; dose: 400.0 mg/kg/injection; schedule: Q04DX003 (ip); vehicle: saline with Tween-80
Toxic doses and inconclusive results are not listed. How the source made its calls: active means survival T/C of 150% or more; inactive means T/C below 125% in these data.
Your response should consist of one outcome taken from active, inactive

These recorded examples may help you get a feel for the data.
CC1=C2CC[C@H]3[C@@H]4CC[C@H](O)[C@@]4(C)CC[C@@H]3[C@@]2(C)CCC1=O: inactive
c1ccc(P(=NC2CCCC2)(c2ccccc2)c2ccccc2)cc1: inactive
Cc1ncc([N+](=O)[O-])n1CCOc1c(Br)cc(Br)cc1CN(C)C1CCCCC1: inactive
C(=Nc1ccccc1)c1ccccc1C=Nc1ccccc1: inactive
COc1cc(/C=N/NC(=O)c2ccccc2)cc(OC)c1OC: inactive

Would you kindly look at the next entry?
**Query** # fetch the recorded call for C[C@]12CC[C@H]3[C@@H](CCC4=CC(=O)CC[C@@]43C)[C@@H]1CC[C@@H]2OC(=O)Cc1ccc(N(CCCl)CCCl)cc1 here
**Result** active

----------
- Tested on: BDF1 mice, P388 leukemia ip, median survival T/C
- experiment.notes: NCI In Vivo Anticancer Drug Screen. Data for tumor model P388 Leukemia (intraperitoneal) in B6D2F1 (BDF1) mice
- run.conditions: endpoint: median survival time; dose: 200.0 mg/kg/injection; schedule: Q04DX003 (ip); vehicle: saline
Inconclusive results and toxic doses are left out. How the source made its calls: active means survival T/C of 150% or more; inactive means T/C below 125% in these data.
Your response should consist of one outcome taken from YES for active, NO for inactive

These recorded examples may help you get a feel for the data.
CCOCCOCCOCCCNCCCN1CC1: YES
NNC(=O)c1ccncc1: NO
CCOC(=O)c1cnc2c(cnn2CC)c1NN=C(C)C: NO
C[N+](C)(C)CCO: NO
CCOc1ccc(S(=O)(=O)O)c2cccnc12: NO
C#CCOCC1CN(C)C(=O)O1 (stereo not drawn): NO
CC(Br)C(=O)NCC(=O)NCC(=O)O (stereo not drawn): NO

Would you kindly look at the next entry?
**Query** # fetch the recorded call for C=CCNc1ncnc2c1cnn2C here
**Result** NO

----------
- System: BDF1 mice, P388 leukemia ip, median survival T/C
- experiment.notes: NCI In Vivo Anticancer Drug Screen. Data for tumor model P388 Leukemia (intraperitoneal) in B6D2F1 (BDF1) mice
- run.conditions: endpoint: median survival time; dose: 50.0 mg/kg/injection; schedule: Q01DX009 (ip); vehicle: saline with Tween-80; higher = longer survival
Inconclusive results and toxic doses are left out.
quantity.name: T/C

Answered cases to consult:
NC(=O)OCC#CCCl: 100 % of control
CC1(C)CN(Cc2ccccc2)C(C)(C)CN1N: 115 % of control
O=C1/C(=C/c2ccc(Cl)cc2Cl)CCC/C1=C\c1ccc(Cl)cc1Cl: 100 % of control
O=C(/C=N/O)Nc1cc(Cl)c(Cl)cc1Cl: 109 % of control
O=C1CN(Cc2ccc3c(c2)OCO3)NO1: 106 % of control

**Query** Which T/C is reported with BDF1 mice, P388 leukemia ip, median survival T/C for this entry: CCN(CC)Cc1cc(Nc2ccnc3cc(Cl)ccc23)cc(-c2ccc(Cl)cc2)c1O ?
**Result** 110 % of control

**Query** Which T/C is reported with BDF1 mice, P388 leukemia ip, median survival T/C for this entry: CC1(C)CC2(C)OC2C2(C1)N=NC(=Nc1ccccc1)O2 (stereo unspecified) ?
**Result** 117 % of control

----------
- Tested on: BDF1 mice, P388 leukemia ip, median survival T/C
- experiment.notes: NCI In Vivo Anticancer Drug Screen. Data for tumor model P388 Leukemia (intraperitoneal) in B6D2F1 (BDF1) mice
- run.conditions: endpoint: median survival time; dose: 400.0 mg/kg/injection; schedule: Q04DX003 (ip); vehicle: other; higher = longer survival
Toxic doses and inconclusive results are not listed.
quantity.name: T/C

Answered cases to consult:
OCc1cc(Cl)ccc1O: 109 % of control
CCCS(=O)(=O)N(CC(=O)O)Cc1ccccc1: 106 % of control
CCCCCCCCCC(=O)CCCCC: 113 % of control

// moving on: another record for T/C
**Query** # input compound: O=C(O)/C=C/C(=O)Nc1cccc(Oc2ccc([N+](=O)[O-])cc2[N+](=O)[O-])c1 ; wanted: its T/C
**Result** 91 % of control

----------
- System: BDF1 mice, P388 leukemia ip, median survival T/C
- experiment.notes: NCI In Vivo Anticancer Drug Screen. Data for tumor model P388 Leukemia (intraperitoneal) in B6D2F1 (BDF1) mice
- run.conditions: endpoint: median survival time; dose: 100.0 mg/kg/injection; schedule: Q04DX003 (ip); vehicle: saline with Tween-80; higher = longer survival
Inconclusive results and toxic doses are left out.
molecules and their reported T/C

Answered cases to consult:
C[N+](C)(Cn1ncc2ccc([N+](=O)[O-])cc21)Cn1ncc2ccc([N+](=O)[O-])cc21: 106 % of control
CC(=O)NS(=O)(=O)c1ccc(NC(=O)/C=C/C(=O)O)cc1: 104 % of control
O=C(Nc1cc(C(F)(F)F)ccc1Cl)c1ccccc1Cl: 100 % of control
c1nc(SSc2ncnc3nc[nH]c23)c2[nH]cnc2n1: 111 % of control
CCOC(=O)/C(Cc1cnc2ccccc2n1)=N\O: 95 % of control

**Query** # input molecule: CCOC(=O)C(C)C(OCC)OCC (configuration not stated) ; wanted: its T/C
**Result** 100 % of control

**Query** # input molecule: COc1ccc(C(C#N)Nc2ccccc2)cc1 (configuration not stated) ; wanted: its T/C
**Result** 109 % of control

**Query** # input molecule: Cc1nc2c(N)nn(C)c2nc1C ; wanted: its T/C
**Result** 100 % of control

**Query** # input molecule: N=C(N=C(N)N)N1CCOCC1 ; wanted: its T/C
**Result** 115 % of control

**Query** # input molecule: CC(=N\O)/C(=N\O)C(=O)c1ccccc1 ; wanted: its T/C
**Result** 95 % of control

**Query** # input molecule: CCN(CC)c1ccc(NC(=O)NC(C)C)cc1 ; wanted: its T/C
**Result** 90 % of control

**Query** # input molecule: COc1ccc(/C=C2\CCCC3=C2N=C2SCC(=O)N2C3c2ccc(OC)cc2)cc1 (configuration not stated) ; wanted: its T/C
**Result** 90 % of control

----------
- System: BDF1 mice, P388 leukemia ip, median survival T/C
- experiment.notes: NCI In Vivo Anticancer Drug Screen. Data for tumor model P388 Leukemia (intraperitoneal) in B6D2F1 (BDF1) mice
- run.conditions: endpoint: median survival time; dose: 400.0 mg/kg/injection; schedule: Q01DX009 (ip); vehicle: water; higher = longer survival
Toxic doses and inconclusive results are not listed.
quantity.name: T/C

Answered cases to consult:
NC(=O)c1nc(C(F)(F)F)[nH]c1C(N)=O: 118 % of control
COc1cc(OC)cc(C(=O)N2CC2)c1: 91 % of control
COC1(c2ccc(Br)cc2)OC1(C)C (stereo unspecified): 124 % of control

**Query** # input compound: CC1(C)OCC2OC3(C(=O)O)OC(C)(C)OC3C2O1 (stereo unspecified) ; wanted: its T/C
**Result** 101 % of control

**Query** # input compound: CCOC(CN(Cc1ccc(OC)c(OCc2ccccc2)c1)S(=O)(=O)c1ccc(C)cc1)OCC ; wanted: its T/C
**Result** 99 % of control

**Query** # input compound: CCOC(=O)C1CSCC1=O (stereo unspecified) ; wanted: its T/C
**Result** 101 % of control
